The measurements presented in this section are drawn from patent US20210277109A1.

- test-target: T1, human ROR1 'Frizzled-Kringle domain' (human, UniProt Q01973)
- T1 construct: used plain or biotinylated
- T1 sequence (Q01973 165-406 limits assumed): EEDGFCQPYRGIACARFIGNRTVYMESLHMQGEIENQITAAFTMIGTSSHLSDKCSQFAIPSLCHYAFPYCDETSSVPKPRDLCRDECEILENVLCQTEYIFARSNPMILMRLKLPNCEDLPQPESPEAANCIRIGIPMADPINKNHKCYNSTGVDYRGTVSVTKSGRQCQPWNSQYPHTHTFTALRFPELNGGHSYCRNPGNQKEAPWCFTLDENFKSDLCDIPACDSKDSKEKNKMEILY
- protocol-summary: ELISA, direct coat; BCC supernatant
Threshold 0.2 OD450. ELISA OD450 below it: true. ELISA OD450 at it or above: false.

# binder, answer-label
data = [
    ("324E2 (antibody, V domains shown, chimeric counterpart m6; also called rabbit IgG of BCC well 324E2) VH: QSVEESGGRLVTPGTPLTLTCTVSGFSLSNNAITWVRQAPGKGLEYIGIISSSGTTYYASWAKGRFTISKTSSTTVDLKMTSLTTEDTATYFCAGAFSVWGPGTLVTVSS VL: AQVLTQTPSSVSAAVGGTVTINCQSSQSVNNNDLAWFQQKPGQPPKRLIYWASKLASGVPSRFKGSGSGTQFILTISDLECDDAATYYCAGGYSGNIYGFGGGTEVEVK", "true"),
    ("338H4 (antibody, V domains shown, chimeric counterpart m8; also called rabbit IgG of BCC well 338H4) VH: QSVEESGGRLVTPGTPLTLTCTVSGFSLSSYAMSWVRQAPGRGLEWIGIIYASGSTYYASWAKGRFTISKTSTTVDLKITSPTTEDTATYFCARIYDGMDLWGPGTLVTVSS VL: DIVMTQTPASVSAAVGGTVTINCQASQNIYSYLSWYQQKPGQPPKRLIYLASTLASGVPSRFKSSGSGTEYTLTISDLECDDAATYYCQSNYNGNYGFGGGTEVEVK", "false"),
    ("323D10 (antibody, V domains shown, chimeric counterpart m5; also called rabbit IgG of BCC well 323D10) VH: QSVEESGGRLVTPGTPLTLTCTVSGFSLSRNAMNWVRQAPGKGLEYIGYISTSGTTFYANWVKGRFTISKTSTTVDLKMTSLTTEDTATYFCARDYNYAMDIWGQGTLVTVSS VL: AIDLTQTPASVEAAVGGTITINCQASESISSWLAWYQQKPGQRPKLLIYETSKLASGVPPRFSGSGSGTQFTLTISGVQCDDAATYYCQSYYRINNIGYDNAFGGGTEVEFK", "false"),
    ("323H7 (antibody, V domains shown, chimeric counterpart m3; also called rabbit IgG of BCC well 323H7) VH: QEQLKESGGGLVTPGGTLTLTCTASGFTISRYHMTWVRQAPGKGLEWIGHIYVNNDDTDYASWAKGRFTISKTSTTVDLKITSPTTEDTATYFCARLDVGGGGAYIGDIWGQGTLVTVSS VL: QAVVTQTPSSVSAAVGGTVTISCQSSQSVYNNNDLAWYQQKPGQPPKLLIYYASTLASGVSSRFKGSGSGTQFTLAISDLECDDSATYYCAGGYDTDGLDTFAFGGGTEVEVK", "true"),
    ("324C7 (antibody, V domains shown, chimeric counterpart m4; also called rabbit IgG of BCC well 324C7) VH: QSVEESGGRLVTPGTPLTLTCTVSGFSLSGAGVSWVRQAPGKGLEWIGYIDSGATTYYASWAKGRFTISKASTTVDLKIASPTTEDTATYFCARGYYGMDPWGQGTLVTVSS VL: DIVMTQTPASVEVAVGGTVTIKCQASQNIGSDLAWYQQKPGQPPKLLIYTTSNLASGVPSRFKGSGSGTGFTLTISDLECADAASYCCQGGYFSGRNIYGNAFGGGTEVVVK", "true"),
    ("330F11 (antibody, V domains shown, chimeric counterpart m9; also called rabbit IgG of BCC well 330F11) VH: QSVEESGGRLVTPGTPLTLTCTVSGFSLNNYWMSWVRQAPGEGLEWIGTISSGAYTWFATWATGRFTISKTSTTVDLSITSPTTEDTATYFCARYSSTTDWTYFNIWGPGTLVTVSS VL: DVVMTQTPASVEAAVGGTVTIKCQASQSINNYLAWYQQKPGQPPKLLIYRASTLESGVPSRFKGSGSGTQFTLTISDLECADAATYYCQSYNGVGRTAFGGGTEVEFK", "false"),
]
